Below: a set of entries, each annotated with reported IC50, Endogenous human IL-1 B (THP1 supernatants), HEK blue.
molecular target: Endogenous human IL-1B (THP1 supernatants) (human, UniProt P01584 117-269); assay: cell-based or functional assay
Attribute Measured: IC50, Endogenous human IL-1 B (THP1 supernatants), HEK blue (pM)

binder="Antibody A4 (antibody, V domains shown) VH: QVQLVQSGAEVKKPGASVKVSCKATGYTFTDYWIAWVRQAPGQGLEWMGSIFPGGDYTNYNEKFKGRVTMTRDTSTSTSYMELSSLRSEDTAVYYCARPYYSNYGHFDYWGQGTLVTVSS VL: EIVLTQSPATLSLSPGERATLSCRASESVDNSGIGFMNWYQQKPGQAPRLLIYAASNQGSGIPARFSGSGSGTDFTLTISRLEPEDFAVYYCQQNKELPWTFGQGTKLEIK" units_symbol=pM number=36
binder="Antibody B4 (antibody, V domains shown) VH: EVQLVQSGAEVKKPGASVKVSCKASGFSFTGYYMHWVRQAPGQGLEWVGLIIPHNDYTVNNQKFKGRVTMTRDTSTSTAYMELSSLRSEDTAVYYCARSDYYGAMDYWGQGTLVTVSS VL: EIVMTQSPATLSVSPGERATLSCRASQNIGTSIHWYQQKPGQAPRLLIKYASDSKDGIPARFSGSGSGTEFTLTISSLQSEDIAVYYCQQGASWPPFTFGQGTKLEIK" units_symbol=pM number=7
binder="Antibody A1 (antibody, V domains shown) VH: QVQLVQSGAEVKKPGASVKVSCKATGYTFTNYWIAWVKQAPGQGLEWMGSIFPGGDYTNYNEKFKGKVTMTRDTSTSTSYMELSSLRSEDTAVYYCARPYYSNYGHFDYWGQGTLVTVSS VL: EIVLTQSPATLSLSPGERATLSCRASESVDNSGIGFMNWYQQKPGQAPKLLIYAASNQGSGIPARFSGSGSGTDFTLTISRLEPEDFAMYYCQQNKELPWTFGGGTKLEIK" units_symbol=pM number=9
binder="Antibody B1 (antibody, V domains shown) VH: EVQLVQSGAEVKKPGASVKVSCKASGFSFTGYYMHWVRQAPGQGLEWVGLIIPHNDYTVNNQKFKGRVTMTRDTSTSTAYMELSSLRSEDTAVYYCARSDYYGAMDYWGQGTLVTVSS VL: EIVMTQSPATLSVSPGERATLSCRASQNIGTSIHWYQQKPGQAPRLLIKYASNSIYGIPARFSGSGSGTEFTLTISSLQSEDIAVYYCQQGASWPPFTFGQGTKLEIK" units_symbol=pM number=3
binder="Antibody B3 (antibody, V domains shown) VH: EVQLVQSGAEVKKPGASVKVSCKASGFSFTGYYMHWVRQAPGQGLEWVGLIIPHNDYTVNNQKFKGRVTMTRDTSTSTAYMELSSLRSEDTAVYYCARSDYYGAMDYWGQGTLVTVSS VL: EIVMTQSPATLSVSPGERATLSCRASQNIGTSIHWYQQKPGQAPRLLIKYASDSVYGIPARFSGSGSGTEFTLTISSLQSEDIAVYYCQQGASWPPFTFGQGTKLEIK" units_symbol=pM number=1
binder="Antibody A3 (antibody, V domains shown) VH: QVQLVQSGAEVKKPGASVKVSCKATGYTFTDYWIAWVRQAPGQGLEWMGSIFPGGDYTNYNEKFKGRVTMTRDTSTSTSYMELSSLRSEDTAIYYCARPYYSNYGHFDYWGQGTLVTVSS VL: EIILTQFPATLSLSPGERATISCRASESVDNSGIGFMNWYQQKPGQAPRLLIYAASNQGSGIPARFSGSGSGTDFTLTISRLEPEDFAVYYCQQNKELPWTFGQGTKLEIK" units_symbol=pM number=8
